# assay-system: Kinesin-like protein KIF11 (Homo sapiens)
# Sequence (P52732 whole entry): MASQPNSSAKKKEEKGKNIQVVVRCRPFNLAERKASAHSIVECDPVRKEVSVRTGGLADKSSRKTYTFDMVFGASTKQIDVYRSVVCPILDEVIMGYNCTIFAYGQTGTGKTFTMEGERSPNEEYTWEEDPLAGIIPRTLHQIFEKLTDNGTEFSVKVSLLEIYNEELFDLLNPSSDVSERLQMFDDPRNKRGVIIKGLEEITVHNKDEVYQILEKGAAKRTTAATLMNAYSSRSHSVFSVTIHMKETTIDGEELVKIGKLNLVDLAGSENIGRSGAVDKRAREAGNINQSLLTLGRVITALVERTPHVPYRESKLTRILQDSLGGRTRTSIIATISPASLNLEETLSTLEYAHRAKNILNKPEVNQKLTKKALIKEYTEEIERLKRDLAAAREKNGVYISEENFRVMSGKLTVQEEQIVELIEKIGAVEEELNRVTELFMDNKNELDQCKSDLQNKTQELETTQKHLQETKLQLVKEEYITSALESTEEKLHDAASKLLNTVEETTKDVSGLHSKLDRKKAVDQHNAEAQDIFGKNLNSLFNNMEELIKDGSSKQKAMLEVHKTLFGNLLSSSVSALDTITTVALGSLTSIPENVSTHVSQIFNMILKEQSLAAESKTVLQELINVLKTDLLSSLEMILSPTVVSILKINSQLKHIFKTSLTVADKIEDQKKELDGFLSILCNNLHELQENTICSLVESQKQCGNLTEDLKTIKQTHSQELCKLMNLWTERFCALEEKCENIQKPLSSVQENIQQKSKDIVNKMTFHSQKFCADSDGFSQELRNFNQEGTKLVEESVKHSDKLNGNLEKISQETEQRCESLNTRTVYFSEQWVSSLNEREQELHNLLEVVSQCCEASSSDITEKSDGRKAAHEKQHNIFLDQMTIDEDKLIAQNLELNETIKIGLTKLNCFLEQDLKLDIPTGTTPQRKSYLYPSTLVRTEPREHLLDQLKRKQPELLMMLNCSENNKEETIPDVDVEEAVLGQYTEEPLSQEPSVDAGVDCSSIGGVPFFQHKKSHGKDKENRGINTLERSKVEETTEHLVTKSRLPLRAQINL
metric: IC50 (µM)

>>> quantitative_result("Oc1cccc(C2NC(=S)Nc3ccc(F)cc32)c1 (centres undefined) [VS-77]")
8.04

I = Oc1cccc(C2NC(=S)Nc3ccccc32)c1 (centres undefined) [VS-12]
II = CCOC(=O)C1C(C)=NC(=S)N[C@H]1c1cccc(O)c1 (some centres undefined) [Monastrol]
III = Oc1cccc(C2NC(=S)Nc3cccc(F)c32)c1 (centres undefined) [VS-83]
Input line: With regard to IC50, arrange the entries in ascending order, please. The reply should contain the labels ordered as requested.
Output line: III, I, II
(III: 1.17 µM, I: 7.6 µM, II: 20.7 µM)

Measured values drawn from BindingDB's records for doi:10.1002/cbic.200500168 for this set.
